test system: Wolbachia pipientis; test: Anti-Wolbachia Cell-Based Screen; assay type: functional; parameters: scale not given: in the data most compounds retested in dose-response had high values; details: 5 µM
Hit rate of the full screen: of about 48,000 compounds, about 13,000 (27%) showed an effect of 50% or more. This is one part of the list.
Reported Property: Percent Effect (%)
The figure you give is taken to be in %; do not add the unit.

# Compound, Reading
records = [
    ("Fc1cnc(N2CCOC3(CCN(Cc4cccs4)CC3)C2)nc1.O=C(O)C(F)(F)F.O=C(O)C(F)(F)F", 104.4),
    ("CN(C)Cc1cc(-c2nccn2CCc2cccnc2)ccc1O", -8.952),
    ("Cc1cccc(-c2nc(C)nn2CC(=O)NC(C)C)c1", 108.3),
    ("CC(=O)N1CCN(C(=O)CCc2cc(Br)cs2)CC1", -5.733),
    ("Cc1cccc(CN2CCC3(CC2)CN(c2cccnc2)C(=O)CO3)n1.O=C(O)C(F)(F)F.O=C(O)C(F)(F)F", 90.31),
]

Simply: O=C(C1CCOc2ccccc21)N1CCOc2cccc(F)c21 (stereo not given) , Wolbachia pipientis, Percent Effect = 6.908

Simply: CCN(CC)CC[C@H]1CN(C(=O)C2CCC2)CC[C@H]1CC(=O)O , Wolbachia pipientis, Percent Effect = -6.679

Simply: CC1c2ncc(COc3cccnc3)n2CCN1C(=O)Cc1ccco1.O=C(O)C(F)(F)F (stereo not given) , Wolbachia pipientis, Percent Effect = 6.97

Simply: COC(=O)CCCNC(=O)COc1ccccc1C(F)(F)F , Wolbachia pipientis, Percent Effect = -5.238

Simply: CN(C)CC1CN(Cc2nnc(-c3ccccc3Cl)o2)CCO1 (stereo not given) , Wolbachia pipientis, Percent Effect = 1.962

Simply: Cn1ccnc1CN1CCC2(CC1)CN(c1cncnc1)C(=O)CO2.O=C(O)C(F)(F)F , Wolbachia pipientis, Percent Effect = -21.12

Sourced from ChEMBL document CHEMBL3988442
